Please provide measured Kd for the entries that follow.
target: transferrin (Homo sapiens); assay: SPR steady-state solution phase KD of candidate affinity elements, transferrin immobilized on Biacore T100 chip; assay type: binding; conditions: estimated from steady-state SPR response, 25° C., PBST pH 7.4; read-out: Solution Phase KD
Sequence (P02787 20-698, species assumed): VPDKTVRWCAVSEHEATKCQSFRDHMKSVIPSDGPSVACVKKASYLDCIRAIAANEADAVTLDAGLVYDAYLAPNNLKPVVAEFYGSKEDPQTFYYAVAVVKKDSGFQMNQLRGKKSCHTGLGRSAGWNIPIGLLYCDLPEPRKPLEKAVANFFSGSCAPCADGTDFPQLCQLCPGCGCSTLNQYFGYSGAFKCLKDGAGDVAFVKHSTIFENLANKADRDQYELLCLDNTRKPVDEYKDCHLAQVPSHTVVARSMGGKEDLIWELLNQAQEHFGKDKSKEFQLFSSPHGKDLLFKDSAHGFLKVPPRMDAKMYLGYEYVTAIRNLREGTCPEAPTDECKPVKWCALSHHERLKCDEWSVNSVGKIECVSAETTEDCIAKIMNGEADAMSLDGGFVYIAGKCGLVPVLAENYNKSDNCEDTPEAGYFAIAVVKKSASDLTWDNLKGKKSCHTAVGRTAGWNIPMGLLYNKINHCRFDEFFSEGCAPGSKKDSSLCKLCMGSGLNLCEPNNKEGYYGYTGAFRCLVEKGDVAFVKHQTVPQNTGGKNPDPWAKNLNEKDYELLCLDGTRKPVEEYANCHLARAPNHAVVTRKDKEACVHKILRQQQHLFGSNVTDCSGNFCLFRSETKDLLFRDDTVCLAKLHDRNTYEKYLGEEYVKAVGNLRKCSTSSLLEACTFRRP
Ends that are not written are not given here.

{"sequence-entry": "QYHHFMNLKRQGRAQAYGSC [TRF21]", "Kd": "~60 µM"}
{"sequence-entry": "FRGWAHIFFGPHVIYRGGSC [TRF23]", "Kd": "~50 µM"}

Turning to the following sequence.
Exercise: Can you share its Kd? I mean this sequence: APYAPQQIHYWSTLGFKGSC [TRF25]
Key: ~60 µM

---

Target: transferrin (Homo sapiens)
Experiment: SPR steady-state solution phase KD of candidate affinity elements, transferrin immobilized on Biacore T100 chip
Assay type: binding
Settings: restates Table 3; read-out: solution phase affinities for transferrin, range of KD
Source text: Transferrin was immobilized by amine-coupling to the carboxyl-functionalized surface of a Biacore T100 CMS Dextran SPR chip as illustrated in FIG. 11. […] In general, for evaluating whether binding occurs, it is preferable to immobilize a relatively large quantity of target, and higher flow rates and/or longer contact times may be used. […]
pKd: −log10 of the molar value. Ends that are not written are not given here.
assay-endpoint: pKd

{"sequence-entry": "AHKVVPQRQIRHAYNRYGSC [TRF26]", "pKd": "4.00 to 4.30"}

Shift focus to the following entry.
Exercise: I am curious: what pKd value has been reported for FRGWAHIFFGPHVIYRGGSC [TRF23] ?
Key: 4.00 to 4.30

Values were extracted from patent US9863938B2.
